Target: T1, 4H3590-AA
T1 chain: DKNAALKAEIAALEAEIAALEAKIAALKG
Experiment: two-hybrid library CCmax;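 also: natural log of median RNA to DNA barcode read ratio; higher means stronger binding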
Conditions: mean of both orientations

>  <binder>
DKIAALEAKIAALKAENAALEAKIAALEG [4H2389-AA]

>  <interaction score>
-0.0915

$$$$
>  <binder>
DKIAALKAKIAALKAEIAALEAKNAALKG [4H2888-AA]

>  <interaction score>
2.23

$$$$
>  <binder>
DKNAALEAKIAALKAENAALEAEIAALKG [4H3410-AA]

>  <interaction score>
-0.698

$$$$
>  <binder>
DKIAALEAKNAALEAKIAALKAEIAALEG [4H2473-AA]

>  <interaction score>
1.18

$$$$
>  <binder>
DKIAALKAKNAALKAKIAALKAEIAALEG [4H3049-AA]

>  <interaction score>
1.4

$$$$
>  <binder>
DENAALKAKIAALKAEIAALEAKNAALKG [4H1864-AA]

>  <interaction score>
1.23

$$$$
>  <binder>
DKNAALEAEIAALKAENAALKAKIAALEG [4H3165-AA]

>  <interaction score>
-0.944

$$$$
